# Tested on: CP256
# assay: qHTS profiling for inhibitors of Plasmodium falciparum proliferation (AID 504749); further: nearly all actives have a fitted effect of over 60% in size
# measurement_parameters: P. falciparum in erythrocytes, SYBR Green DNA, 72 h; series mostly up to 12.8 µM
Results filed as inconclusive are left out. The source made the active and inactive calls. The call rests on the fitted dose curve; in most records, active means well fitted inhibition curve with a large enough effect; inconclusive means small, poorly fitted or top-dose-only effect; inactive means flat fitted curve, though single readings scatter.
Hi there, use one of these labels in your reply, thanks! active, inactive

Assay result, entry `CC(=O)OCC1=C(C(=O)O)N2C(=O)[C@@H](NC(=O)CSc3ccncc3)[C@@H]2SC1` — outcome?
inactive

Assay result, entry `CC(C)N1CCN(c2ccc(OC[C@@H]3CO[C@@](Cn4cncn4)(c4ccc(Cl)cc4Cl)O3)cc2)CC1` — outcome?
inactive

Assay result, entry CN1[C@@H]2CC[C@H]1CC(OC(=O)[C@@H](O)c1ccccc1)C2 (stereo not given in full) — outcome?
inactive

More entries:
Assay result, entry `C[C@@H](CCc1ccccc1)NC[C@H](O)c1ccc(O)c(C(N)=O)c1` — outcome?
inactive

Assay result, entry `CCN(CC)CCC[C@H](C)Nc1c2ccc(Cl)cc2nc2ccc(OC)cc12` — outcome?
active
